Can you tell me Km for the items I'm about to list?
- Substrate: C[C@H](NC(=O)CCC(=O)O)C(=O)N[C@@H](C)C(=O)N1CCC[C@H]1C(=O)N[C@@H](Cc1ccccc1)C(=O)Nc1ccc([N+](=O)[O-])cc1
- experimentalProtocol: Kinetic parameters for hydrolysis of synthetic peptide substrate
- Assay type: biochemical, Bacillus lentus
- assaySetup: other: Table III, 0.1 M Tris-HCL buffer, pH 8.6, 25° C.
Numbers only, in µM.

Bacillus lentus subtilisin variant N76D/S99D/S101R (Protease #7) (Lederbergia lenta; N74D/S97D/S99R) (protein, The mature subtilisin protein is coded by the codons beginning at the codon GCG (334-336) corresponding to Ala; made in house; host or cells: Bacillus subtilis) AQSVPWGISRVQAPAAHNRGLTGSGVKVAVLDTGISTHPDLNIRGGASFVPGEPSTQDGNGHGTHVAGTIAALDNSIGVLGVAPSAELYAVKVLGADGRGSVSSIAQGLEWAGNNGMHVANLSLGSPSPSATLEQAVNSATSRGVLVVAASGNSGAGSISYPARYANAMAVGATDQNNNRASFSQYGAGLDIVAPGVNVQSTYPGSTYASLNGTSMATPHVAGAAALVKQKNPSWSNVQIRNHLKNTATSLGSTNLYGSGLVNAEAATR
380

Here is another protein to look at.
Q) What does the record list as Km for Bacillus lentus subtilisin variant N76D (Lederbergia lenta; N74D) (protein, The mature subtilisin protein is coded by the codons beginning at the codon GCG (334-336) corresponding to Ala; made in house; host or cells: Bacillus subtilis) AQSVPWGISRVQAPAAHNRGLTGSGVKVAVLDTGISTHPDLNIRGGASFVPGEPSTQDGNGHGTHVAGTIAALDNSIGVLGVAPSAELYAVKVLGASGSGSVSSIAQGLEWAGNNGMHVANLSLGSPSPSATLEQAVNSATSRGVLVVAASGNSGAGSISYPARYANAMAVGATDQNNNRASFSQYGAGLDIVAPGVNVQSTYPGSTYASLNGTSMATPHVAGAAALVKQKNPSWSNVQIRNHLKNTATSLGSTNLYGSGLVNAEAATR ?
A) 800
